Entries and their %Inh values follow.
tested on: BMPR1A; details: concentration: 1 μM, replicates: in singlicate; n = 1;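 further: KINOMEscan kinase panel screen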

Consider the worked cases shown below.
- Cc1ccc(F)c(C(=O)Nc2cccc(-c3nn4ccccc4c3-c3ccnc(Nc4cccc(F)c4)n3)c2)c1F: 10%
- COC(=O)Nc1nc2cc(Oc3ccc(NC(=O)Nc4cc(C(F)(F)F)ccc4F)cn3)ccc2[nH]1.Cl.Cl: 0%
- CCn1c(-c2nonc2N)nc2c(C#CC(C)(C)O)nc(OC[C@H](N)c3ccccc3)cc21: 0%

// moving on: another record for %Inh
Query :: Report %Inh for "Cl.NC(=O)c1cccc(Nc2nccc(Nc3ccc(Oc4c(Cl)cccc4Cl)c(Cl)c3)n2)c1"
Result :: 100%

----------
tested on: YSK1; construct: gene STK25; details: concentration: 1 μM, replicates: in singlicate; n = 1
Some compounds, each annotated with its measured %Inh.
# number only, unit % dropped from output

Recorded results for 8 compounds are shown here.
* Cn1cc(-c2[nH]c3cc(NC(=O)[C@H](N)C4CCCCC4)cc4c3c2C=NNC4=O)cn1 | 47
* C[C@@H]1CC[C@@H](C(=O)Nc2ccccc2)CN1c1cc(-c2ccc3c(N)n[nH]c3c2)nc(N)n1 | 21
* Oc1cc(Nc2ccnc3cc(I)ccc23)ccc1F | 0
* Clc1ccc(-c2nn3ncccc3c2-c2ccnc(Nc3ccc4c(c3)OCCO4)n2)cc1 | 0
* COc1ccc(Nc2nccc(N3CCC(NC(=O)Nc4cccc(OC)c4)C3)n2)cc1 (stereo not drawn) | 0
* c1ccc(Oc2ccc(Nc3ccnc4cc(-c5ccc(CNCCN6CCOCC6)o5)ccc34)cc2)nc1 | 2
* Cn1cc(-c2ccc3c(c2)CCN3C(=O)Cc2cccc(F)c2)c2c(N)ncnc21 | 31
* Cc1ccc(F)c(C(=O)Nc2cccc(-c3nn4ccccc4c3-c3ccnc(Nc4cccc(F)c4)n3)c2)c1F | 0

Query :: Look up and report measured %Inh for this entry: "COc1cc(Nc2nccc(-c3c(-c4cccc(NC(=O)c5c(F)cccc5F)c4)nn4ccccc34)n2)cc(OC)c1OC"
Result :: 3

Query :: For the compound "O=C(Nc1n[nH]c2cc(-c3ccoc3)ccc12)C1CC1" , report %Inh.
Result :: 0

Query :: Please list %Inh recorded for the compound "Nc1ncc(-c2ccc3nccc(-c4ccncc4)c3c2)cc1S(=O)(=O)N1CCOCC1"
Result :: 0

Query :: Check the records and state %Inh for "Cc1ccc(C(=O)N2CC[C@@H](O)C2)cc1-n1c(C)cc(OCc2ccc(F)cc2F)c(Br)c1=O"
Result :: 0

Query :: Report measured %Inh; entry is "Cc1occc1-c1ncc(OC[C@@H](N)Cc2c[nH]c3ccccc23)cc1-c1ccc2[nH]nc(C)c2c1.O=C(O)C(F)(F)F"
Result :: 17

Query :: Indicate its recorded %Inh; the compound in question is "O=C(Nc1cccc(-c2nn3ccccc3c2-c2ccnc(Nc3cccc(C(F)(F)F)c3)n2)c1)c1c(F)cccc1F"
Result :: 0

Query :: Tell me its %Inh given "Fc1ccc(-c2ncn(C3CCNCC3)c2-c2ccnc(Oc3ccc(-c4ccccc4)cc3)n2)cc1" as the entry.
Result :: 18

----------
test system: GRK2; construct: gene ADRBK1; details: concentration: 1 μM, replicates: in singlicate; n = 1
ASSAY_METRIC: %Inh (%)
Give just the number in %; leave the unit off.

• CC(C)(C)c1ccc2nccc(Nc3cccc(O)c3)c2c1 = 39

Here is the next item to consider.
Query :: Recall and state the measured %Inh for "Cn1cc(-c2ccc3c(c2)CCN3C(=O)Cc2cccc(F)c2)c2c(N)ncnc21" .
Result :: 0

// provenance: paper PMC5540273
